molecular target: Pepsin A (Homo sapiens, UniProt P0DJD9)
Sequence (P0DJD9 whole entry): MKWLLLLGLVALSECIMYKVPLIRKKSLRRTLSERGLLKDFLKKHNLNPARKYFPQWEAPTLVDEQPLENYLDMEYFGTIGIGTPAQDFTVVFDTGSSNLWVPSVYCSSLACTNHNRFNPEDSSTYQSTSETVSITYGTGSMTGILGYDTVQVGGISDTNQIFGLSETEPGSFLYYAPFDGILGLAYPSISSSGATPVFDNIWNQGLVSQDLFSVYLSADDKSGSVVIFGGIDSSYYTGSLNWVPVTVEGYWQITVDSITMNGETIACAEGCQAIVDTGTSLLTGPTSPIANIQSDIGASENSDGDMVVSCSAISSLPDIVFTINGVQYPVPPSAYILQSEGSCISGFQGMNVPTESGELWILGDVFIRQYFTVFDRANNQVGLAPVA
pIC50: −log10 of the molar value.

[
  {
    "smiles representation": "NC1CCN(C(=O)C[C@@H](Cc2ccccc2)C(=O)N[C@@H](Cc2c[nH]cn2)C(=O)N[C@@H](CC2CCCCC2)[C@@H](O)[C@@H](O)CCc2ccccn2)CC1",
    "pIC50": "< 4.00"
  }
]

====

target: Renin (Homo sapiens); assay: In vitro inhibition of purified human kidney renin
Sequence (P00797 whole entry): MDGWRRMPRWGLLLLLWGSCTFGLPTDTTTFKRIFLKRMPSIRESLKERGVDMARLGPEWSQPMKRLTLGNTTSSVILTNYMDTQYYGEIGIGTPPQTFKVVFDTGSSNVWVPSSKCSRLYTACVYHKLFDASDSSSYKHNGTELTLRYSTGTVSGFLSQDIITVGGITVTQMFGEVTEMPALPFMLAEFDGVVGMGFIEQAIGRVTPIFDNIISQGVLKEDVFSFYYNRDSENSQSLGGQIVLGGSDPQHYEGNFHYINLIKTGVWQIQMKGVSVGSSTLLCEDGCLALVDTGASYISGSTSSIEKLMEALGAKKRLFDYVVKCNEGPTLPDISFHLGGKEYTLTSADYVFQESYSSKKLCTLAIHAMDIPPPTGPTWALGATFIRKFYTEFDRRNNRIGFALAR

[
  {
    "smiles representation": "CCC[C@H](NC(=O)[C@@H](CC(=O)N1CCC(N)CC1)Cc1ccccc1)C(=O)N[C@@H](CC1CCCCC1)[C@@H](O)[C@@H](O)CCc1ccccn1",
    "IC50 / nM": 0.68
  },
  {
    "smiles representation": "NC1CCN(C(=O)O[C@@H](Cc2ccccc2)C(=O)N[C@@H](Cc2cnc[nH]2)C(=O)N[C@@H](CC2CCCCC2)[C@@H](O)[C@@H](O)CCc2ccccn2)CC1",
    "IC50 / nM": 0.53
  },
  {
    "smiles representation": "N[C@H]1CC[C@@H](S(=O)(=O)C[C@@H](Cc2ccccc2)C(=O)N[C@@H](Cc2cnc[nH]2)C(=O)N[C@@H](CC2CCCCC2)[C@@H](O)[C@@H](O)CCc2ccccn2)CC1",
    "IC50 / nM": 0.31
  },
  {
    "smiles representation": "CSC[C@H](NC(=O)[C@@H](CC(=O)N1CCC(N)CC1)Cc1ccccc1)C(=O)N[C@@H](CC1CCCCC1)[C@@H](O)[C@@H](O)CCc1ccccn1",
    "IC50 / nM": 0.26
  },
  {
    "smiles representation": "NC1CCN(S(=O)(=O)C[C@@H](Cc2ccccc2)C(=O)N[C@@H](Cc2cnc[nH]2)C(=O)N[C@@H](CC2CCCCC2)[C@@H](O)[C@@H](O)CCc2ccccn2)CC1",
    "IC50 / nM": 0.7
  },
  {
    "smiles representation": "CCOC(=O)CCCCC(=O)N[C@@H](Cc1ccccc1)C(=O)N[C@@H](Cc1c[nH]cn1)C(=O)N[C@@H](CC1CCCCC1)[C@@H](O)[C@@H](O)CCc1ccccn1",
    "IC50 / nM": 0.69
  }
]

====

experiment: Half-life was determined; format: ADME; details: human
property name: half-life (h)

[
  {
    "smiles representation": "NC1CCN(C(=O)C[C@@H](Cc2ccccc2)C(=O)N[C@@H](Cc2c[nH]cn2)C(=O)N[C@@H](CC2CCCCC2)[C@@H](O)[C@@H](O)CCc2ccccn2)CC1",
    "property name": "half-life",
    "units label": "h",
    "sign qualifier": "=",
    "recorded result": 1.52
  },
  {
    "smiles representation": "N[C@H]1CC[C@@H](C(=O)N[C@@H](Cc2ccccc2)C(=O)N[C@@H](Cc2cnc[nH]2)C(=O)N[C@@H](CC2CCCCC2)[C@@H](O)[C@@H](O)CCc2ccccn2)CC1",
    "property name": "half-life",
    "units label": "h",
    "sign qualifier": "<",
    "recorded result": 0.05
  },
  {
    "smiles representation": "O=C(N[C@@H](Cc1cnc[nH]1)C(=O)N[C@@H](CC1CCCCC1)[C@@H](O)[C@@H](O)CCc1ccccn1)[C@@H](CC(=O)N1CCOCC1)Cc1ccccc1",
    "property name": "half-life",
    "units label": "h",
    "sign qualifier": "=",
    "recorded result": 0.367
  },
  {
    "smiles representation": "CC(C)(C)S(=O)(=O)C[C@@H](Cc1ccccc1)C(=O)N[C@@H](Cc1c[nH]cn1)C(=O)N[C@@H](CC1CCCCC1)[C@@H](O)[C@@H](O)CCc1ccccn1",
    "property name": "half-life",
    "units label": "h",
    "sign qualifier": "=",
    "recorded result": 2.85
  }
]
